Where do the numbers come from? From patent US8952002B2.

Readings of IC50 for the listed molecules
# target or test system: receptor tyrosine kinase c-Met (c-Met kinase domain recombination protein) (Homo sapiens (Human))
# Sequence (P08581 1078-1345): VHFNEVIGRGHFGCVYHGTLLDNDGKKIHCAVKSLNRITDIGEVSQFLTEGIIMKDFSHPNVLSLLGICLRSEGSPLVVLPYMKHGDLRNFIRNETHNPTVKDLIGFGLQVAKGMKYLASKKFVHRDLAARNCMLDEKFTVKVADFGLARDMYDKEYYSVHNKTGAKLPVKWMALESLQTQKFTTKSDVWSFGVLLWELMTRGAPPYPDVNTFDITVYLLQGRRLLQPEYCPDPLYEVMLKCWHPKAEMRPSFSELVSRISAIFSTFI
# assay procedure: Enzyme linked immunosorbent assay (ELISA) of c-Met kinase activity
# Format: biochemical
# measurement parameters: c-Met enzyme, ELISA; read-out: IC50 (nM) mean ± SD
Please make sure the unit comes right after the number.

molecule	IC50
C[C@@H](Oc1cc(-c2cn(C3CCNCC3)nn2)cnc1N)c1c(Cl)ccc(F)c1Cl	1.7 nM
CC(Oc1cc(-c2cn(C3CCNCC3)nn2)cnc1N)c1c(Cl)ccc(F)c1Cl (stereo not drawn)	6.7 nM

We next turn to a different molecule, shown below.
Query :: Please give the documented IC50 of "C[C@H](Oc1cc(-c2cn(C3CCNCC3)nn2)cnc1N)c1c(Cl)ccc(F)c1Cl"
Result :: 11.7 nM
